Values from paper PMC6259748

TESTED TARGET: T1, TYLPWPA peptide (synthetic (phage display))
T1 chain: TYLPWPA
PROTOCOL: fluorescence titration (quenching); 10 mM HEPES, 50 mM NaCl, 1 mM Na2EDTA, pH 7.5, 25 C; apparent, 7% signal change; SPR: 10 mM Tris-HCl pH 7.5, 150 mM NaCl, 10 mM MgCl2, 1 mM DTT, 0.005% P20, 50 uL/min, streptavidin-coated CM5 chip; CD: 10 mM sodium phosphate pH 7, 100 mM NaCl, 0.1 mM Na2EDTA, 25 C; fluorescence: 10 mM HEPES pH 7.5, 50 mM NaCl, 1 mM Na2EDTA, 25 C
ASSAY CONTEXT: label: 5'-fluorescein; hairpin
OBSERVATION TYPE: pKd
Scale: negative log10 of molar concentration, which is what pKd denotes.

Fill blank: measured pKd of the binder GUUCGAUGCAACGCGAAC (structured_RNA, m2G966; m5C967 (E. coli numbering); 5' phosphorothioate) [F-h31 (modified h31, fluorescein)] is ____. 4.57
